# TARGET SYSTEM: Pyruvate kinase PKM (Homo sapiens) (UniProt P14618)
# Sequence (P14618 whole entry, looked up, canonical isoform): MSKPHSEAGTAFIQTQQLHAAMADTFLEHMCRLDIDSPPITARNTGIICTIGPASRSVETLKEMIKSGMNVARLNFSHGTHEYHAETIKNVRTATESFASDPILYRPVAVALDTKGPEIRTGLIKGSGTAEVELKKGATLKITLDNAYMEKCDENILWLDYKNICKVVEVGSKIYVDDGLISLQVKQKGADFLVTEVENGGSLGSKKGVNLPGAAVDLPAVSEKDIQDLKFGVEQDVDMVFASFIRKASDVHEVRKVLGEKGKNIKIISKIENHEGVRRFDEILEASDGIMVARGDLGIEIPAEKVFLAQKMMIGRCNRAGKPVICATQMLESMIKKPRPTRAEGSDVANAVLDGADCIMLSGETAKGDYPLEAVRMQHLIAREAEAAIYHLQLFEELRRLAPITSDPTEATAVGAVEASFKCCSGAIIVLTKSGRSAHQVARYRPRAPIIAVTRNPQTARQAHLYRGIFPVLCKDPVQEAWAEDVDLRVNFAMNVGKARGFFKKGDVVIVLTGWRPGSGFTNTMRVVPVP
# EXPERIMENT SUMMARY: Secondary assay for Activators of Human Pyruvate Kinase M2 isoform
# STUDY CONDITIONS: purified hPK-M2, LDH-coupled NADH fluorescence kinetic; series mostly up to 57.5 µM
# Experimental: Confirmatory assay NIH Chemical Genomics Center [NCGC] Matthew G. Vander Heiden, M.D., Ph.D. [Harvard Medical School, 77 Avenue Louis Pasteur, Boston, MA 02115] NCGC Assay Overview: Human pyruvate kinase muscle 2 (hPK-M2)enzyme was supplied as a highly purified (>95% pure) preparation from Harvard Medical School and a secondary assay was used to evaluate compounds. […] In this kinetic assay initial rates were determined by following the fluorescence of NADH depletion. […]
Records with an inconclusive call do not appear. Active and inactive are the calls of the source. Calls follow the shape of the dose curve; as a rule, active = well fitted activation curve with a large enough effect; inconclusive = small, poorly fitted or top-dose-only effect, or effect the other way; inactive = flat fitted curve, though single readings scatter.
The categories you may choose from are true (1) = active, false (0) = inactive

# outcome recorded in this test, key = `Cc1cc2c(s1)c1cnn(Cc3ccc(C)c(F)c3F)c(=O)c1n2C`
true (1)

# outcome recorded in this test, key = `Cc1ccc(C)c(OC2=NS(=O)(=O)c3ccccc32)c1`
false (0)

# outcome recorded in this test, key = `C=Cc1cc(F)c(S(=O)(=O)N2CCN(S(=O)(=O)c3ccc4c(c3)OCCO4)CC2)cc1F`
true (1)

# outcome recorded in this test, key = `O=S(=O)(c1ccc2c(c1)OCCCO2)N1CCN(S(=O)(=O)c2c(F)cccc2F)CC1`
true (1)

# outcome recorded in this test, key = `Nc1cc(S(=O)(=O)N2CCN(S(=O)(=O)c3ccc4c(c3)OCCO4)CC2)ccn1`
false (0)

# outcome recorded in this test, key = `Cn1c2cc(B(O)O)sc2c2cnn(Cc3c(F)cccc3Cl)c(=O)c21`
true (1)

# outcome recorded in this test, key = `Nc1cccc(S(=O)(=O)N2CCN(S(=O)(=O)c3ccc4c(c3)OCCO4)CC2)c1`
true (1)

# outcome recorded in this test, key = `Nc1ccc(S(=O)(=O)N2CCCN(S(=O)(=O)c3ccc4c(c3)OCCO4)CC2)cc1`
true (1)

# outcome recorded in this test, key = `Cn1c2cc(C#N)sc2c2cnn(Cc3ccccc3F)c(=O)c21`
true (1)

# outcome recorded in this test, key = `Cn1c2cc(CO)sc2c2cnn(Cc3ccccc3F)c(=O)c21`
true (1)

# outcome recorded in this test, key = `COc1cccc(Cn2ncc3c4sc(B(O)O)cc4n(C)c3c2=O)c1`
true (1)

# outcome recorded in this test, key = `CC(=O)Nc1ccc(S(=O)(=O)N2CCN(S(=O)(=O)c3ccc4c(c3)OCCO4)CC2)cc1`
true (1)

# outcome recorded in this test, key = `COC/C=C/c1cc(F)c(S(=O)(=O)N2CCN(S(=O)(=O)c3ccc4c(c3)OCCO4)CC2)cc1F`
true (1)

# outcome recorded in this test, key = `Cn1c2cc(B(O)O)sc2c2cnn(Cc3ccccc3F)c(=O)c21`
true (1)

# outcome recorded in this test, key = `O=S(=O)(c1ccc2c(c1)OCCO2)N1CCN(S(=O)(=O)c2ccccn2)CC1`
true (1)

# outcome recorded in this test, key = `Cc1ccc(Cn2ncc3c4sc(C)cc4n(C)c3c2=O)c(C)c1`
true (1)

# outcome recorded in this test, key = `Cn1c2cc(C=O)sc2c2cnn(Cc3ccccc3F)c(=O)c21`
true (1)

# outcome recorded in this test, key = `COc1cc(F)c(S(=O)(=O)N2CCN(S(=O)(=O)c3ccco3)CC2)c(F)c1`
true (1)

# outcome recorded in this test, key = `O=S(=O)(c1ccc2c(c1)OCO2)N1CCN(S(=O)(=O)c2c(F)cccc2F)CC1`
true (1)

# outcome recorded in this test, key = `Cc1cc2c(s1)c1cnn(Cc3ccccc3)c(=O)c1n2C`
true (1)

# outcome recorded in this test, key = `COc1cc(F)c(S(=O)(=O)N2CCN(S(=O)(=O)c3ccc4c(c3)OCCO4)CC2)c(F)c1`
true (1)

----------
Consider the following compounds; for each one, report its Potency.
# TARGET SYSTEM: Pyruvate kinase PKM (Homo sapiens)
# EXPERIMENT SUMMARY: Secondary assay for Activators of Human Pyruvate Kinase M2 isoform
# STUDY CONDITIONS: purified hPK-M2, LDH-coupled NADH fluorescence kinetic; series mostly up to 57.5 µM
Results filed as inconclusive are left out. Active and inactive are the calls of the source. Calls follow the shape of the dose curve; as a rule, active = well fitted activation curve with a large enough effect; inconclusive = small, poorly fitted or top-dose-only effect, or effect the other way; inactive = flat fitted curve, though single readings scatter.

Record `Cc1cc2c(s1)c1cnn(Cc3c(F)cccc3F)c(=O)c1n2C` , field Potency: 141 nM (active)

Record `O=S(=O)(c1ccc2c(c1)OCCO2)N1CCN(S(=O)(=O)c2cccc[n+]2[O-])CC1` , field Potency: 4470 nM (active)

Record `COc1ccc(Cn2ncc3c4sc(C)cc4n(C)c3c2=O)cc1` , field Potency: 199 nM (active)

Record `O=S(=O)(c1ccc2c(c1)OCCO2)N1CCN(S(=O)(=O)c2ccccc2F)CC1` , field Potency: 316 nM (active)

Record `Cn1ccc2cc(S(=O)(=O)N3CCN(S(=O)(=O)c4c(F)cccc4F)CC3)ccc21` , field Potency: 1410 nM (active)

Record `O=S(=O)(c1ccc(Cl)cc1)N1CCN(S(=O)(=O)c2ccc3c(c2)OCCO3)CC1` , field Potency: 1120 nM (active)

Record `Cc1cc2c(s1)c1cnn(Cc3ccc(F)cc3)c(=O)c1n2C` , field Potency: 251 nM (active)

Record `O=C(O)Cc1cc(F)c(S(=O)(=O)N2CCN(S(=O)(=O)c3ccc4c(c3)OCCO4)CC2)cc1F` , field Potency: 14100 nM (active)

Record `COc1ccc(Cn2ncc3c4sc(C)cc4n(C)c3c2=O)cc1F` , field Potency: 1120 nM (active)

Record `Cn1c2cc(S(C)(=O)=O)sc2c2cnn(Cc3ccccc3F)c(=O)c21` , field Potency: 447 nM (active)

----------
# TARGET SYSTEM: Pyruvate kinase PKM (Homo sapiens)
# EXPERIMENT SUMMARY: Secondary assay for Activators of Human Pyruvate Kinase M2 isoform
# STUDY CONDITIONS: purified hPK-M2, LDH-coupled NADH fluorescence kinetic; series mostly up to 57.5 µM
Records with an inconclusive call do not appear. Activity calls are given as the source filed them. Calls come from the whole dose curve; as a rule, active = well fitted activation curve with a large enough effect; inconclusive = small, poorly fitted or top-dose-only effect, or effect the other way; inactive = flat fitted curve, though single readings scatter.
Consider the following molecules; for each one, report its Potency.

# lookup: `O=S(=O)(c1ccc2c(c1)OCCO2)N1CCN(S(=O)(=O)c2ccc3c(c2)OCCO3)CC1` on Pyruvate kinase PKM (Homo sapiens), Potency = 398 nM (active)

# lookup: `Cc1cc2c(s1)c1cnn(Cc3ccc(F)cc3F)c(=O)c1n2C` on Pyruvate kinase PKM (Homo sapiens), Potency = 178 nM (active)

# lookup: COc1cccc(Cn2ncc3c4sc(S(C)=O)cc4n(C)c3c2=O)c1 (stereo not given) on Pyruvate kinase PKM (Homo sapiens), Potency = 146 nM (active)

# lookup: `O=S(=O)(c1ccc2c(c1)OCCO2)N1CCN(S(=O)(=O)c2ccc(F)cc2F)CC1` on Pyruvate kinase PKM (Homo sapiens), Potency = 501 nM (active)

# lookup: `CC(=O)Nc1cccc(S(=O)(=O)N2CCCN(S(=O)(=O)c3ccc4c(c3)OCCO4)CC2)c1` on Pyruvate kinase PKM (Homo sapiens), Potency = 819 nM (active)

# lookup: `COC(=O)c1cc2c(s1)c1cnn(Cc3ccccc3F)c(=O)c1n2C` on Pyruvate kinase PKM (Homo sapiens), Potency = 355 nM (active)

# lookup: `COc1ccc(S(=O)(=O)N2CCN(S(=O)(=O)c3ccc4c(c3)OCCO4)CC2)cc1` on Pyruvate kinase PKM (Homo sapiens), Potency = 562 nM (active)

# lookup: `O=S(=O)(c1cccc(F)c1)N1CCN(S(=O)(=O)c2ccc3c(c2)OCCO3)CC1` on Pyruvate kinase PKM (Homo sapiens), Potency = 1000 nM (active)

# lookup: `COCCCc1cc(F)c(S(=O)(=O)N2CCN(S(=O)(=O)c3ccc4c(c3)OCCO4)CC2)cc1F` on Pyruvate kinase PKM (Homo sapiens), Potency = 3160 nM (active)

----------
# TARGET SYSTEM: Pyruvate kinase PKM (Homo sapiens)
# EXPERIMENT SUMMARY: Secondary assay for Activators of Human Pyruvate Kinase M2 isoform
# STUDY CONDITIONS: purified hPK-M2, LDH-coupled NADH fluorescence kinetic; series mostly up to 57.5 µM
Records with an inconclusive call do not appear. Activity calls are given as the source filed them. Calls come from the whole dose curve; as a rule, active = well fitted activation curve with a large enough effect; inconclusive = small, poorly fitted or top-dose-only effect, or effect the other way; inactive = flat fitted curve, though single readings scatter.
The categories you may choose from are yes (1) for active, no (0) for inactive

# outcome recorded in this test, key = `Cc1ccc(Cn2ncc3c4sc(C)cc4n(C)c3c2=O)cc1`
yes (1)

# outcome recorded in this test, key = `Cn1c2cc(C(=O)O)sc2c2cnn(Cc3ccccc3F)c(=O)c21`
yes (1)

# outcome recorded in this test, key = `CCn1c2cc(C)sc2c2cnn(Cc3ccccc3F)c(=O)c21`
yes (1)

# outcome recorded in this test, key = `O=S(=O)(c1ccc2c(c1)OCCO2)N1CCN(S(=O)(=O)c2cc(F)c(F)cc2F)CC1`
yes (1)

# outcome recorded in this test, key = `CC(=O)Nc1ccc(S(=O)(=O)N2CCCN(S(=O)(=O)c3ccc4c(c3)OCCO4)CC2)cc1`
yes (1)

# outcome recorded in this test, key = `Cc1cc2c(s1)c1cnn(Cc3ccc(Cl)cc3)c(=O)c1n2C`
yes (1)

# outcome recorded in this test, key = `CCc1cc2c(s1)c1cnn(Cc3ccccc3F)c(=O)c1n2C`
yes (1)

# outcome recorded in this test, key = `CC(C)c1cc2c(s1)c1cnn(Cc3ccccc3F)c(=O)c1n2C`
yes (1)

# outcome recorded in this test, key = `C[C@@H]1CN(S(=O)(=O)c2ccc3c(c2)OCCO3)CCN1S(=O)(=O)c1c(F)cccc1F`
yes (1)

# outcome recorded in this test, key = `Cn1c2ccsc2c2cnn(Cc3ccc(F)cc3)c(=O)c21`
yes (1)

# outcome recorded in this test, key = `Cc1nc2ccc(S(=O)(=O)N3CCN(S(=O)(=O)c4c(F)cccc4F)CC3)cc2s1`
yes (1)

# outcome recorded in this test, key = `Cc1cc2c(s1)c1c(C)nn(Cc3ccc(F)cc3)c(=O)c1n2C`
yes (1)

# outcome recorded in this test, key = `CS(=O)(=O)Nc1cccc(-c2cc(F)c(S(=O)(=O)N3CCN(S(=O)(=O)c4ccc5c(c4)OCCO5)CC3)cc2F)c1`
no (0)

# outcome recorded in this test, key = `Cc1cc2[nH]c3c(=O)n(Cc4ccccc4F)ncc3c2s1`
yes (1)

# outcome recorded in this test, key = `COc1cc(F)c(S(=O)(=O)N2CCN(S(=O)(=O)c3ccc(NC(C)=O)cc3)CC2)c(F)c1`
yes (1)

# outcome recorded in this test, key = `COc1cc(F)c(S(=O)(=O)N2CCN(S(=O)(=O)c3ccc(N)cc3)CC2)c(F)c1`
yes (1)

# outcome recorded in this test, key = `CCCc1cc(F)c(S(=O)(=O)N2CCN(S(=O)(=O)c3ccc4c(c3)OCCO4)CC2)cc1F`
yes (1)

# outcome recorded in this test, key = `O=S(=O)(c1ccccc1)N1CCN(S(=O)(=O)c2ccc3c(c2)OCCO3)CC1`
yes (1)

# outcome recorded in this test, key = `O=C1CN(S(=O)(=O)c2ccc3c(c2)OCCO3)CCN1S(=O)(=O)c1c(F)cccc1F`
yes (1)

# outcome recorded in this test, key = `Nc1ccc(S(=O)(=O)N2CCN(S(=O)(=O)c3ccc4c(c3)OCCO4)CC2)cc1`
yes (1)
